I'd be grateful if you could share measured DR/DR AA for these entries.
- test-description: Probe fluorescence ratio response to arachidonic acid relative to ADIFAB2
- Format: binding
- condition-details: arachidonic acid; response relative to ADIFAB2
API note: the answer field is a bare number with no unit suffix.

Recorded result, 106T, 72A (protein, listed as Rattus norvegicus, PEPTIDE (1)...(131) wild-type rat intestinal fatty acid binding protein) AFDGTWKVDRNENYEKFMEKMGINVVKRKLGAHDNLKLTITQEGNKFTVKESSNFRNIDVVFELGVDFAYSAADGTELTGTWTMEGNKLVGKFKRVDNGKELIAVTEISGNELIQTYTYEGVEAKRIFKKE , DR/DR AA: 0.250

Recorded result, 60A, 72A (protein, listed as Rattus norvegicus, PEPTIDE (1)...(131) wild-type rat intestinal fatty acid binding protein) AFDGTWKVDRNENYEKFMEKMGINVVKRKLGAHDNLKLTITQEGNKFTVKESSNFRNIDAVFELGVDFAYSAADGTELTGTWTMEGNKLVGKFKRVDNGKELIAVREISGNELIQTYTYEGVEAKRIFKKE , DR/DR AA: 0.787

Recorded result, 18L, 72A (protein, listed as Rattus norvegicus, PEPTIDE (1)...(131) wild-type rat intestinal fatty acid binding protein) AFDGTWKVDRNENYEKFLEKMGINVVKRKLGAHDNLKLTITQEGNKFTVKESSNFRNIDVVFELGVDFAYSAADGTELTGTWTMEGNKLVGKFKRVDNGKELIAVREISGNELIQTYTYEGVEAKRIFKKE , DR/DR AA: 1.490
